# measured_target: A*24:02 (Homo sapiens, UniProt P04439, D101N/D140Y/D185E/E176V/E190D/F33S/G103R/G107R/I119L/I121M/I306V/K335N/L105A/L180Q/L300P/N151K/N90K/Q86E/Q94H/R106L/R138H/R89G/T104I/T345S/V100E/W191G/Y123F)
# method_notes: ProImmune REVEAL binding assay
Recorded REVEAL® score at 0 h for the following sequences
// return a plain number; no unit text

[[record]]
primary_sequence = "LGCGRGGWS"
observed = 74.8

[[record]]
primary_sequence = "LMCHATFTM"
observed = 99.5

[[record]]
primary_sequence = "MAMTDTTPF"
observed = 51.3

[[record]]
primary_sequence = "HWTEAKMLL"
observed = 103.2

[[record]]
primary_sequence = "WTEAKMLLD"
observed = 94.7


What does the data say about its REVEAL® score at 0 h? Entry: GEAAAIFMT
58.9

What does the data say about its REVEAL® score at 0 h? Entry: VGTYGLNTF
96.0

What does the data say about its REVEAL® score at 0 h? Entry: CHATFTMRL
75.9

What does the data say about its REVEAL® score at 0 h? Entry: YFHRRDLRL
87.5

###

# measured_target: B*27:05 (Homo sapiens, UniProt P01889, D138H/D201E/E176V/E204Q/G107R/H137Y/K202T/N104T/N87E/Q56L/Q94K/R106L/R155S/R180L/S101D/S121N/S48T/Y140D/Y33H/Y91C)
# method_notes: ProImmune REVEAL binding assay
Class True: REVEAL® score at 0 h at least 100. Class False: REVEAL® score at 0 h below 100.

[[record]]
primary_sequence = "FKLTYQNKV"
classification = "False"

[[record]]
primary_sequence = "GQQRVFKEK"
classification = "False"

[[record]]
primary_sequence = "ARGYISTRV"
classification = "True"


Is the recorded value of REVEAL® score at 0 h equal to or greater than 100 for this sequence? RRGDLPVWL
True

###

Recorded REVEAL® score at 0 h for the following sequences
# measured_target: A*11:01 (Homo sapiens, UniProt P04439, A114D/D185E/E176A/F33Y/L180Q/S129P/T187R)
# method_notes: ProImmune REVEAL binding assay
// return a plain number; no unit text

[[record]]
primary_sequence = "HTMWHVTRG"
measurement_type = "REVEAL® score at 0 h"
observed = 56.3


What does the data say about its REVEAL® score at 0 h? Entry: GQQRVFKEK
85.5

###

# measured_target: A*02:01 (Homo sapiens, UniProt P04439, D140Y/D185E/D98H/E176V/E277Q/G131W/G231S/I119V/I121R/I166T/I218V/L300P/L318F/N151K/N90K/P208A/P217A/Q86G/Q94H/R138H/R169H/T345S)
# method_notes: ProImmune REVEAL binding assay
In plain terms, low REVEAL® score at 0 h, meaning strictly below 70, gives 1 (yes), and everything else gives 0 (no).

[[record]]
primary_sequence = "LMRRGDLPV"
classification = "0 (no)"

[[record]]
primary_sequence = "MGEAAAIFM"
classification = "1 (yes)"

[[record]]
primary_sequence = "AMTDTTPFG"
classification = "0 (no)"

[[record]]
primary_sequence = "AISGDDCVV"
classification = "0 (no)"

[[record]]
primary_sequence = "MWHVTRGAV"
classification = "1 (yes)"


Determine whether this sequence shows REVEAL® score at 0 h lower than 70 (ties excluded): LMYFHRRDL
0 (no)

Determine whether this sequence shows REVEAL® score at 0 h lower than 70 (ties excluded): TMWHVTRGA
0 (no)

Determine whether this sequence shows REVEAL® score at 0 h lower than 70 (ties excluded): LMCHATFTM
0 (no)

###

Recorded REVEAL® score at 0 h for the following sequences
# measured_target: B*07:02 (Homo sapiens, UniProt P01889)
# method_notes: ProImmune REVEAL binding assay
// return a plain number; no unit text

// solved cases for REVEAL® score at 0 h follow
[[record]]
primary_sequence = "IPERSWNSG"
measured_target = "B*07:02 (Homo sapiens, UniProt P01889)"
observed = 45.2

[[record]]
primary_sequence = "LSRNSTHEM"
measured_target = "B*07:02 (Homo sapiens, UniProt P01889)"
observed = 124.5

[[record]]
primary_sequence = "MAMTDTTPF"
measured_target = "B*07:02 (Homo sapiens, UniProt P01889)"
observed = 117.4

[[record]]
primary_sequence = "PERVILAGP"
measured_target = "B*07:02 (Homo sapiens, UniProt P01889)"
observed = 56.1


What does the data say about its REVEAL® score at 0 h? Entry: TPFGQQRVF
112.7

###

# measured_target: H-2Kb (Mus musculus)
# Sequence (P01901 22-295 limits assumed): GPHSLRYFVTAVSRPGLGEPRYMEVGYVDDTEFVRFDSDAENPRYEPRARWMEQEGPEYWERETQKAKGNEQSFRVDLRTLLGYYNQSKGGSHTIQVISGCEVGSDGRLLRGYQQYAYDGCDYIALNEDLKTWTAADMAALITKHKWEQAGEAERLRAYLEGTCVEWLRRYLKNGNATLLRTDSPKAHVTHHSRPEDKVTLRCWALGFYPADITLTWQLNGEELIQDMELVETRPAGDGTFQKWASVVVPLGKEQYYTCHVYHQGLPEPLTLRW
# Sequence (P01887 21-119 partner): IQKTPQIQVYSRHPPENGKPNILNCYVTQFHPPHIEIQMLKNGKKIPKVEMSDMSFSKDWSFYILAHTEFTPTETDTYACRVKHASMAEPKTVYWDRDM
# method_notes: ProImmune REVEAL binding assay
Recorded REVEAL® score at 0 h for the following sequences
// return a plain number; no unit text

[[record]]
primary_sequence = "ATFTMRLLS"
observed = 55.6

[[record]]
primary_sequence = "CHATFTMRL"
observed = 60.3

[[record]]
primary_sequence = "YGLNTFTNM"
observed = 75.4

[[record]]
primary_sequence = "HATFTMRLL"
observed = 69.5

[[record]]
primary_sequence = "LSRNSTHEM"
observed = 51.1

[[record]]
primary_sequence = "LMCHATFTM"
observed = 59.0

[[record]]
primary_sequence = "LMYFHRRDL"
observed = 54.9

[[record]]
primary_sequence = "FKPGTSGSP"
observed = 45.7

[[record]]
primary_sequence = "QQRVFKEKV"
observed = 63.4


What does the data say about its REVEAL® score at 0 h? Entry: LAPTRVVAA
102.5

###

# measured_target: A*11:01 (Homo sapiens, UniProt P04439, A114D/D185E/E176A/F33Y/L180Q/S129P/T187R)
# method_notes: ProImmune REVEAL binding assay
Recorded REVEAL® score at 0 h for the following sequences

// solved cases for REVEAL® score at 0 h follow
[[record]]
primary_sequence = "ISGDDCVVK"
observed = 88.7

[[record]]
primary_sequence = "CVYNMMGKR"
observed = 113.2

[[record]]
primary_sequence = "MCHATFTMR"
observed = 91.0

[[record]]
primary_sequence = "YNMMGKREK"
observed = 80.9

[[record]]
primary_sequence = "TVWFVPSIK"
observed = 92.2


What does the data say about its REVEAL® score at 0 h? Entry: ATFTMRLLS
58.5

What does the data say about its REVEAL® score at 0 h? Entry: NMMGKREKK
77.9

###

# measured_target: A*02:01 (Homo sapiens, UniProt P04439, D140Y/D185E/D98H/E176V/E277Q/G131W/G231S/I119V/I121R/I166T/I218V/L300P/L318F/N151K/N90K/P208A/P217A/Q86G/Q94H/R138H/R169H/T345S)
# method_notes: ProImmune REVEAL binding assay
Recorded REVEAL® score at 0 h for the following sequences
// return a plain number; no unit text

// solved cases for REVEAL® score at 0 h follow
[[record]]
primary_sequence = "GEAAAIFMT"
observed = 74.3

[[record]]
primary_sequence = "TLLCDIGES"
observed = 63.9

[[record]]
primary_sequence = "VVAAEMEEA"
observed = 92.2


What does the data say about its REVEAL® score at 0 h? Entry: KLTYQNKVV
92.3

What does the data say about its REVEAL® score at 0 h? Entry: IVDLMCHAT
62.7

What does the data say about its REVEAL® score at 0 h? Entry: LLCDIGESS
93.9

What does the data say about its REVEAL® score at 0 h? Entry: GQQRVFKEK
47.1

What does the data say about its REVEAL® score at 0 h? Entry: GLYGNGVVT
87.7

###

# measured_target: B*07:02 (Homo sapiens)
# method_notes: ProImmune REVEAL binding assay
measurement_type: REVEAL® score at 0 h
// return a plain number; no unit text

// solved cases for REVEAL® score at 0 h follow
[[record]]
primary_sequence = "PLSRNSTHE"
observed = 65.0

[[record]]
primary_sequence = "SRNSTHEMY"
observed = 52.0

[[record]]
primary_sequence = "FKPGTSGSP"
observed = 50.4

[[record]]
primary_sequence = "LMYFHRRDL"
observed = 119.6


What reported REVEAL® score at 0 h corresponds to LMRRGDLPV on B*07:02 (Homo sapiens)?
178.9
